System: HeLa Kyoto;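 note: HeLa Kyoto cells synchronized by double thymidine or nocodazole block, proteins quantified by TMT10plex mass spectrometry, three independent biological replicates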
Assay: melting temperature (median over replicates), in situ; higher = more thermally stable
Conditions: cell cycle stage: G1/S
# melting temperature annotations

[
  {
    "Chain": "MYYKFSGFTQKLAGAWASEAYSPQGLKPVVSTEAPPIIFATPTKLTSDSTVYDYAGKNKVPELQKFFQKADGVPVYLKRGLPDQMLYRTTMALTVGGTIYCLIALYMASQPKNK [COX7A2L]",
    "Units Text": "°C",
    "melting temperature": 55.7
  },
  {
    "Chain": "MGLAGVCALRRSAGYILVGGAGGQSAAAAARRYSEGEWASGGVRSFSRAAAAMAPIKVGDAIPAVEVFEGEPGNKVNLAELFKGKKGVLFGVPGAFTPGCSKTHLPGFVEQAEALKAKGVQVVACLSVNDAFVTGEWGRAHKAEGKVRLLADPTGAFGKETDLLLDDSLVSIFGNRRLKRFSMVVQDGIVKALNVEPDGTGLTCSLAPNIISQL [PRDX5]",
    "Units Text": "°C",
    "melting temperature": 55.9
  },
  {
    "Chain": "MTDDKDVLRDVWFGRIPTCFTLYQDEITEREAEPYYLLLPRVSYLTLVTDKVKKHFQKVMRQEDISEIWFEYEGTPLKWHYPIGLLFDLLASSSALPWNITVHFKSFPEKDLLHCPSKDAIEAHFMSCMKEADALKHKSQVINEMQKKDHKQLWMGLQNDRFDQFWAINRKLMEYPAEENGFRYIPFRIYQTTTERPFIQKLFRPVAADGQLHTLGDLLKEVCPSAIDPEDGEKKNQVMIHGIEPMLETPLQWLSEHLSYPDNFLHISIIPQPTD [ATG5]",
    "Units Text": "°C",
    "melting temperature": 54.2
  },
  {
    "Chain": "MPLLTQQIQDEDDQYSLVASLDNVRNLSTILKAIHFREHATCFATKNGIKVTVENAKCVQANAFIQAGIFQEFKVQEESVTFRINLTVLLDCLSIFGSSPMPGTLTALRMCYQGYGYPLMLFLEEGGVVTVCKINTQEPEETLDFDFCSTNVINKIILQSEGLREAFSELDMTSEVLQITMSPDKPYFRLSTFGNAGSSHLDYPKDSDLMEAFHCNQTQVNRYKISLLKPSTKALVLSCKVSIRTDNRGFLSLQYMIRNEDGQICFVEYYCCPDEEVPESES [RAD1]",
    "Units Text": "°C",
    "melting temperature": 51.4
  },
  {
    "Chain": "MALASVLERPLPVNQRGFFGLGGRADLLDLGPGSLSDGLSLAAPGWGVPEEPGIEMLHGTTTLAFKFRHGVIVAADSRATAGAYIASQTVKKVIEINPYLLGTMAGGAADCSFWERLLARQCRIYELRNKERISVAAASKLLANMVYQYKGMGLSMGTMICGWDKRGPGLYYVDSEGNRISGATFSVGSGSVYAYGVMDRGYSYDLEVEQAYDLARRAIYQATYRDAYSGGAVNLYHVREDGWIRVSSDNVADLHEKYSGSTP [PSMB5]",
    "Units Text": "°C",
    "melting temperature": 63.3
  },
  {
    "Chain": "MALPIIVKWGGQEYSVTTLSEDDTVLDLKQFLKTLTGVLPERQKLLGLKVKGKPAENDVKLGALKLKPNTKIMMMGTREESLEDVLGPPPDNDDVVNDFDIEDEVVEVENREENLLKISRRVKEYKVEILNPPREGKKLLVLDVDYTLFDHRSCAETGVELMRPYLHEFLTSAYEDYDIVIWSATNMKWIEAKMKELGVSTNANYKITFMLDSAAMITVHTPRRGLIDVKPLGVIWGKFSEFYSKKNTIMFDDIGRNFLMNPQNGLKIRPFMKAHLNRDKDKELLKLTQYLKEIAKLDDFLDLNHKYWERYLSKKQGQ [UBLCP1]",
    "Units Text": "°C",
    "melting temperature": 49.5
  }
]
